Source: paper PMC11477289

test-name: Chromatographic hydrophobicity index on C18 column (lipophilicity)
Format: physicochemical
condition-description: pH 7.4
Listed here are compounds together with their documented CHI C18 pH 7.4.
quantity: CHI C18 pH 7.4

1. O=S(=O)(NC1=Nc2c(Cl)cc(Cl)cc2CN1)c1cccc2ccccc12 | 106.2
2. CC1NC(NS(=O)(=O)c2cccc3ccccc23)=Nc2cc(Cl)ccc21 (centres unmarked) | 99.7
3. CN1CCN2c3ncccc3Cc3ccccc3C2C1 (centres unmarked) [Mirtazapine, reference compound] | 101.2
4. CC1NC(NS(=O)(=O)c2cccc3ccccc23)=Nc2c(Cl)cc(Cl)cc21 (centres unmarked) | 111.3
5. Cc1cccc2c1CNC(NS(=O)(=O)c1cccc3ccccc13)=N2 | 91.8

* * *

test-name: Chromatographic hydrophobicity index on C18 column (lipophilicity)
Type: physicochemical
condition-description: pH 2.6
quantity: CHI C18 pH 2.6

1) COc1ccc(Cl)cc1S(=O)(=O)NC1=Nc2ccccc2CN1 | 82.8
2) O=S(=O)(NC1=Nc2cccc(Cl)c2CN1)c1ccc(Cl)c2ccccc12 | 111.2
3) CC1NC(NS(=O)(=O)c2cccc3ccccc23)=Nc2c(Cl)cc(Cl)cc21 (centres unmarked) | 114.1
4) CC1OC(NS(=O)(=O)c2cccc3ccccc23)=Nc2ccccc21 (centres unmarked) | 102.5
5) O=S(=O)(NC1=Nc2ccccc2CN1)c1ccc(OC(F)(F)F)cc1 | 94.2

* * *

test-name: Fish embryo toxicity (FET) test, OECD 236
condition-description: zebrafish (Danio rerio), in vivo, after 96 h of intoxication
Listed here are compounds together with their documented LC50 at 96 h.
quantity: LC50 at 96 h

1) CC1NC(NS(=O)(=O)c2cccc3ccccc23)=Nc2cccc(Cl)c21 (centres unmarked) [PR 68] | 7.82 µg/mL
2) CC1NC(NS(=O)(=O)c2cccc3ccccc23)=Nc2cccc(F)c21 (centres unmarked) [PR 73] | 10.2 µg/mL

* * *

Test system: HSA and AGP (24:1)
test-name: in vitro
condition-description: human, plasma
quantity: fraction unbound at 12 min, 20 µM

1) CC(=O)CC(c1ccccc1)c1c(O)c2ccccc2oc1=O (stereo not shown) [warfarin] | 0.015

* * *

Listed here are compounds together with their documented CHI C18 pH 10.5.
test-name: Chromatographic hydrophobicity index on C18 column (lipophilicity)
Assay type: physicochemical
condition-description: pH 10.5
quantity: CHI C18 pH 10.5

1. O=S(=O)(NC1=Nc2ccccc2CN1)c1cc(Cl)cc(Cl)c1 [PR 23] | 97.7
2. O=S(=O)(NC1=Nc2cccc(Cl)c2CN1)c1ccc2ccccc2c1 [PR 31] | 100.6
3. O=S(=O)(NC1=Nc2ccccc2CN1)c1ccc2c(Cl)cccc2c1 [PR 30] | 100.4
4. Cc1ccc2c(c1)N=C(NS(=O)(=O)c1cccc3ccccc13)NC2 [PR 62] | 93.7
5. COc1ccc2c(c1)CNC(NS(=O)(=O)c1cccc3ccccc13)=N2 [PR 59] | 88.4
6. CN1CCN2c3ccccc3Cc3ccccc3C2C1 (centres unmarked) [Mianserin, reference compound] | 98.7
7. CC1NC(NS(=O)(=O)c2cccc3ccccc23)=Nc2ccc(Br)cc21 (centres unmarked) [PR 75] | 105.6
8. CC1NC(NS(=O)(=O)c2ccc3ccccc3c2)=Nc2cc(Cl)ccc21 (centres unmarked) [PR 37] | 102.6
9. CC1NC(NS(=O)(=O)c2cccc3ccccc23)=Nc2cccc(Cl)c21 (centres unmarked) [PR 68] | 103.0
10. CC1NC(NS(=O)(=O)c2cccc3ccccc23)=Nc2c(Cl)cc(Cl)cc21 (centres unmarked) [PR 72] | 116.7
11. CC1OC(NS(=O)(=O)c2cccc3ccccc23)=Nc2ccccc21 (centres unmarked) [PR 77] | 103.2
12. Nc1nc2ccccc2n1S(=O)(=O)c1csc2ccccc12 [PR 8] | 91.0
13. CC1NC(NS(=O)(=O)c2ccc(Cl)c3ccccc23)=Nc2c(Cl)cc(Cl)cc21 (centres unmarked) [PR 74] | 128.1
14. O=S(=O)(NC1=Nc2ccccc2CN1)c1c(Cl)ccc2ccccc12 [PR 41] | 96.2
15. O=S(=O)(NC1=Nc2ccc(Cl)cc2CN1)c1cccc2ccccc12 [PR 47] | 98.1
16. O=S(=O)(NC1=Nc2c(Cl)cc(Cl)cc2CN1)c1cccc2ccccc12 [PR 51] | 110.1
17. O=S(=O)(NC1=Nc2ccccc2CN1)c1ccc(OC(F)(F)F)cc1 [PR 17] | 95.0

* * *

Listed here are compounds together with their documented Ki.
assayed-system: human 5-HT6 (Homo sapiens, UniProt P50406)
Construct: expressed in transfected cells
Sequence (P50406 whole entry): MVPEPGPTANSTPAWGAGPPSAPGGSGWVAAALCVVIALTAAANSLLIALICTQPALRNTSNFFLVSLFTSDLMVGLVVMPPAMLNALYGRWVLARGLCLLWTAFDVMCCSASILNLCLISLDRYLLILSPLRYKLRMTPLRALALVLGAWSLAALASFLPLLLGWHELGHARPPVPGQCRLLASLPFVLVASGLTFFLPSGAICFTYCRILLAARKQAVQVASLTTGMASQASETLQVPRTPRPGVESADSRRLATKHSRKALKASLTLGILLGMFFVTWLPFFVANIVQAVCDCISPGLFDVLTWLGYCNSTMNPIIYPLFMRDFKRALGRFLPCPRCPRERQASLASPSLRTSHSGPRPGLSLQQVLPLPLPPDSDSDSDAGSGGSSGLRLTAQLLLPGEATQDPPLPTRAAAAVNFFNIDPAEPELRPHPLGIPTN
test-name: [3H]-LSD radioligand binding assay, 5-HT6R
condition-description: HEK293 expressing human 5-HT6R, read-out: 5-HT6 Ki
quantity: Ki (nM)

1. CC1NC(NS(=O)(=O)c2cccc3ccccc23)=Nc2cc(Cl)ccc21 (stereo not shown) [PR 70] | 985
2. O=S(=O)(NC1=Nc2cc(Cl)ccc2CN1)c1ccc2ccccc2c1 [PR 33] | 1960
3. COc1cccc(S(=O)(=O)NC2=Nc3ccccc3CN2)c1 [PR 24] | 906
4. O=S(=O)(NC1=Nc2cccc(Cl)c2CN1)c1c(Cl)ccc2ccccc12 [PR 52] | 133

* * *

test-name: Chromatographic hydrophobicity index on C18 column (lipophilicity)
Type: physicochemical
condition-description: pH 7.4
quantity: CHI C18 pH 7.4

1) COc1ccc2c(c1)N=C(NS(=O)(=O)c1cccc3ccccc13)NC2 [PR 60] | 87.0
2) CN1CCN2c3ccccc3Cc3ccccc3C2C1 (centres unmarked) [Mianserin, reference compound] | 108.6
3) O=S(=O)(NC1=Nc2ccccc2CN1)c1cccc(Cl)c1 [PR 19] | 83.2
4) O=S(=O)(NC1=Nc2ccccc2CN1)c1c(Cl)ccc2ccccc12 [PR 41] | 93.1
5) O=S(=O)(NC1=Nc2cccc(Cl)c2CN1)c1ccc2ccccc2c1 [PR 31] | 97.4
6) O=S(=O)(NC1=Nc2ccccc2CN1)c1ccc(F)cc1 [PR 14] | 75.0
7) O=S(=O)(NC1=Nc2cc(F)ccc2CN1)c1cccc2ccccc12 [PR 56] | 89.0
8) CC1NC(NS(=O)(=O)c2ccc3ccccc3c2)=Nc2cc(Cl)ccc21 (centres unmarked) [PR 37] | 100.1
9) CN(C)CCC=C1c2ccccc2CCc2ccccc21 [Amitriptyline, reference compound] | 112.0
10) COc1cccc(S(=O)(=O)NC2=Nc3ccccc3CN2)c1 [PR 24] | 74.5
11) O=S(=O)(NC1=Nc2ccccc2CN1)c1ccc(Cl)c(Cl)c1 [PR 21] | 92.3
12) COc1ccc(C(CN(C)C)C2(O)CCCCC2)cc1 (centres unmarked) [Venlafaxine, reference compound] | 82.2
13) O=S(=O)(NC1=Nc2ccc(Cl)cc2CN1)c1cccc2ccccc12 [PR 47] | 95.3
14) O=S(=O)(NC1=Nc2ccccc2CN1)c1ccc(Cl)c2ccccc12 [PR 42] | 99.2
15) Cc1ccc2c(c1)N=C(NS(=O)(=O)c1cccc3ccccc13)NC2 [PR 62] | 93.0
16) COc1cccc2c1CNC(NS(=O)(=O)c1cccc3ccccc13)=N2 [PR 58] | 90.8
17) CC1NC(NS(=O)(=O)c2cccc3ccccc23)=Nc2cccc(Cl)c21 (centres unmarked) [PR 68] | 99.2
18) O=S(=O)(NC1=Nc2ccccc2CN1)c1ccc2c(Cl)cccc2c1 [PR 30] | 97.7
19) COc1ccc(Cl)cc1S(=O)(=O)NC1=Nc2ccccc2CN1 [PR 25] | 81.0
20) O=S(=O)(Nc1nc2ccccc2[nH]1)c1cccc2ccccc12 [PR 11] | 76.7

* * *

Listed here are compounds together with their documented pKi.
assayed-system: human 5-HT6 (Homo sapiens, UniProt P50406)
Construct: expressed in transfected cells
test-name: [3H]-LSD radioligand binding assay, 5-HT6R
condition-description: HEK293 expressing human 5-HT6R, read-out: 5-HT6 Ki
pKi: −log10 of the molar value.
quantity: pKi

1. O=S(=O)(NC1=Nc2ccccc2CN1)c1ccc(-c2ccccc2)cc1 | 5.37
2. O=S(=O)(NC1=NCc2cc(Cl)ccc2N1)c1ccc2ccccc2c1 | 6.02
3. Nc1nc2ccccc2n1S(=O)(=O)c1cccc2cccnc12 | 6.50
4. Cc1ccc2c(c1)N=C(NS(=O)(=O)c1cccc3ccccc13)NC2 | 6.19
5. COc1ccc(Cl)cc1S(=O)(=O)NC1=Nc2ccccc2CN1 | 5.33
6. COc1ccc2c(c1)N=C(NS(=O)(=O)c1cccc3ccccc13)NC2 | 5.85
7. CC1OC(NS(=O)(=O)c2cccc3ccccc23)=Nc2ccccc21 (stereo not shown) | 6.43
8. Nc1nc2ccccc2n1S(=O)(=O)c1ccc2c(c1)CC(=O)N2 | 4.83
9. CC1NC(NS(=O)(=O)c2cccc3ccccc23)=Nc2c(Cl)cc(Cl)cc21 (stereo not shown) | 6.00
10. CC1NC(NS(=O)(=O)c2cccc3ccccc23)=Nc2ccc(Br)cc21 (stereo not shown) | 6.32
